Target: pooled human IgG (human IgG1,2,3 and 4)
MEASUREMENT_LABEL: Enzyme activity endpoint: Fab′2
# output: number + unit

// recorded Enzyme activity endpoint: Fab′2 for PRT-679 (protein) MQITSVWTKGVTPLTPEQFRYNNEDVIHAPYLAHQGWYDITKTFDGKDNLLCGAATAGNMLHWWFDQNKTEIEAYLSKHPEKQKIIFNNQELFDLKEAINTKDSQTNSQLFNYFRDKAFPNLSARQLGVMPDLVLDMFINGYYLNVFKTQSTDVNRPYQDKDKRGGIFDAVFTRGDQTTLLTARHDLKNKGLNEISTIIKQELTEGKALALSHTYANVSISHVINLWGADFNAEGNLEAIYVTDSDANASIGMKKYFVGINAHGHVAISAKKIEGENIGAQVLGLFTLSSGKDIWQKLSLEHHHHHH : 693 ng/µL
